FYI, the data here is from ChEMBL document CHEMBL1124630.

Tested on: Enterobacter cloacae
Experiment: In vitro antibacterial activity against Enterobacter cloacae (A 9656)
Type: functional
Details: Enterobacter cloacae; read-out: MIC
Entries whose MIC is below 0.2 µg/mL take Y; entries at or above 0.2 µg/mL take N.

Req: Below 0.2 µg/mL on MIC? Entry "CC(C)n1cc(C(=O)O)c(=O)c2cc(F)c(N3CCNCC3)cc21"
Resp: N

Req: Identify whether the compound "O=C(O)c1cn(C2CC2)c2nc(N3CCNCC3)c(F)cc2c1=O" records MIC below 0.2 µg/mL.
Resp: Y

Req: Strictly below 0.2 µg/mL: is that where MIC of "CC(C)(C)n1cc(C(=O)O)c(=O)c2cc(F)c(N3CCNCC3)cc21" sits?
Resp: Y

Req: Hello, is MIC of the following compound strictly smaller than 0.2 µg/mL? "O=C(O)c1cn(C2CCC2)c2cc(N3CCNCC3)c(F)cc2c1=O"
Resp: N

Req: Lab log: compare recorded MIC with 0.2 µg/mL; is it strictly lower for "CCC(C)(C)n1cc(C(=O)O)c(=O)c2cc(F)c(N3CCNCC3)cc21" ?
Resp: N

Req: Consider "CCn1cc(C(=O)O)c(=O)c2cc(F)c(N3CCNCC3)cc21" . Does its MIC lie strictly below 0.2 µg/mL?
Resp: Y

Req: Please determine if "O=C(O)c1cn(C2CC2)c2c(F)c(N3CCNCC3)c(F)cc2c1=O" is below 0.2 µg/mL in terms of MIC.
Resp: Y

Req: MIC under 0.2 µg/mL? Item: "CC1(n2cc(C(=O)O)c(=O)c3cc(F)c(N4CCNCC4)cc32)CCC1"
Resp: N

Req: Is MIC of "O=C(O)c1cn(C2CC=CC2)c2cc(N3CCNCC3)c(F)cc2c1=O" strictly below 0.2 µg/mL?
Resp: N

Req: In plain terms, does "O=C(O)c1cn(Cc2ccccc2)c2cc(N3CCNCC3)c(F)cc2c1=O" come in under 0.2 µg/mL for MIC?
Resp: N

Req: Determine whether this compound shows MIC lower than 0.2 µg/mL (ties excluded): "O=C(O)c1cn(C23CC4CC(CC(C4)C2)C3)c2cc(N3CCNCC3)c(F)cc2c1=O"
Resp: N

Req: Find out if reported MIC for "CC1(n2cc(C(=O)O)c(=O)c3cc(F)c(N4CCNCC4)cc32)CC1" is less than 0.2 µg/mL
Resp: N

Req: Below 0.2 µg/mL on MIC? Entry CC1CCC1n1cc(C(=O)O)c(=O)c2cc(F)c(N3CCNCC3)cc21 (stereo not drawn)
Resp: N

Req: Is the reported MIC for "CC(C)n1cc(C(=O)O)c(=O)c2cc(F)c(N3CCNCC3)nc21" strictly below 0.2 µg/mL?
Resp: N

Req: Is MIC strictly under 0.2 µg/mL for the entry "O=C(O)c1cn(C2(c3ccccc3)CC2)c2cc(N3CCNCC3)c(F)cc2c1=O" ?
Resp: N

Req: Is it true that MIC reported for "CCn1cc(C(=O)O)c(=O)c2cc(F)c(N3CCNCC3)nc21" is less than 0.2 µg/mL?
Resp: N

Req: Does "C=C(C)n1cc(C(=O)O)c(=O)c2cc(F)c(N3CCNCC3)cc21" have MIC strictly under 0.2 µg/mL?
Resp: Y

Req: MIC under 0.2 µg/mL? Item: "CC(C)(C)n1cc(C(=O)O)c(=O)c2cc(F)c(N3CCNCC3)c(F)c21"
Resp: N

Req: Determine if CC(c1ccccc1)n1cc(C(=O)O)c(=O)c2cc(F)c(N3CCNCC3)cc21 (stereo not drawn) shows MIC strictly lower than 0.2 µg/mL.
Resp: N

Req: Does the reported MIC of "CC(C)(C)n1cc(C(=O)O)c(=O)c2cc(F)c(N3CCNCC3)nc21" stay below 0.2 µg/mL?
Resp: Y

Req: # TODO verify MIC < 0.2 µg/mL strictly for this compound: "C=C(C)n1cc(C(=O)O)c(=O)c2cc(F)c(N3CCNCC3)nc21"
Resp: N

Req: Does this compound meet the criterion MIC < 0.2 µg/mL? "O=C(O)c1cn(CC2CC2)c2cc(N3CCNCC3)c(F)cc2c1=O"
Resp: N

Req: Identify whether the compound CC1(C)CC1n1cc(C(=O)O)c(=O)c2cc(F)c(N3CCNCC3)cc21 (stereo not drawn) records MIC below 0.2 µg/mL.
Resp: N

====

Assay: Maximum concentration in plasma after oral administration in dog (25 mg/kg)
Format: ADME, organism-based, Canis lupus familiaris
Design: dose 25 mg/kg, route oral
ASSAY_READOUT: Cmax (ng/mL)
Entry rule: numbers only, all in ng/mL.

Req: Need Cmax of "CC(C)(C)n1cc(C(=O)O)c(=O)c2cc(F)c(N3CCNCC3)cc21" , thanks.
Resp: 6400

Req: Look up Cmax: "CC(C)(C)n1cc(C(=O)O)c(=O)c2cc(F)c(N3CCNCC3)nc21"
Resp: 5800

Req: Give the measured Cmax of "O=C(O)c1cn(C2CC2)c2cc(N3CCNCC3)c(F)cc2c1=O" .
Resp: 3000

====

Assign ED50 to each entry below.
Tested on: Pseudomonas aeruginosa
Assay: In vivo efficacy in systemic infection due to Pseudomonas aeruginosa (A 9843) in mice
Format: functional
Conditions: read-out: PD50
# output: number + unit

Req: Query: ED50; subject: "O=C(O)c1cn(C2CC2)c2cc(N3CCNCC3)c(F)cc2c1=O"
Resp: 5 mg/kg

Req: What measured ED50 goes with "C=C(C)n1cc(C(=O)O)c(=O)c2cc(F)c(N3CCNCC3)nc21" ?
Resp: 20 mg/kg

Req: GET /values?readout=ED50&item= "CC(C)(C)n1cc(C(=O)O)c(=O)c2cc(F)c(N3CCNCC3)nc21"
Resp: 12 mg/kg

Req: Reported ED50, molecule "O=C(O)c1cn(C2CC2)c2nc(N3CCNCC3)c(F)cc2c1=O" : ____
Resp: 3.6 mg/kg

Req: Fill in: ED50 of "CCn1cc(C(=O)O)c(=O)c2cc(F)c(N3CCNCC3)cc21" is ___
Resp: 16 mg/kg

Req: Fill blank: measured ED50 of the molecule "CC(C)(C)n1cc(C(=O)O)c(=O)c2cc(F)c(N3CCNCC3)cc21" is ____.
Resp: 18 mg/kg

====

System: Staphylococcus aureus
Experiment: In vivo efficacy in systemic infection due to Staphylococcus aureus Smith (A 9537) in mice
Assay type: functional
Settings: read-out: PD50
ASSAY_READOUT: ED50 (mg/kg)
API: value field is a number in mg/kg; no unit string.

Req: # lookup: ED50 of "CC(C)(C)n1cc(C(=O)O)c(=O)c2cc(F)c(N3CCNCC3)nc21"
Resp: 1.1

Req: Please look up its ED50: "O=C(O)c1cn(C2CC2)c2nc(N3CCNCC3)c(F)cc2c1=O"
Resp: 6.7

Req: Would you kindly share the measured ED50 for O=C(O)c1cn(C2CC2)c2cc(N3CCNCC3)c(F)cc2c1=O [CIPROFLOXACIN] ?
Resp: 4

Req: Can you share its ED50? I mean this compound: CCn1cc(C(=O)O)c(=O)c2cc(F)c(N3CCNCC3)cc21 [NORFLOXACIN]
Resp: 10

Req: Find the recorded ED50 belonging to "C=C(C)n1cc(C(=O)O)c(=O)c2cc(F)c(N3CCNCC3)nc21" and report it.
Resp: 15

Req: Fill in: ED50 of "CC(C)(C)n1cc(C(=O)O)c(=O)c2cc(F)c(N3CCNCC3)cc21" is ___
Resp: 8

====

System: Klebsiella pneumoniae
Assay: In vitro antibacterial activity against Klebsiella pneumoniae (A 9664)
Format: functional
Conditions: Klebsiella pneumoniae; read-out: MIC
ASSAY_READOUT: MIC (µg/mL)
Quick note: give the figure in µg/mL, leave out the unit.

Req: Recorded MIC for "O=C(O)c1cn(CC2CC2)c2cc(N3CCNCC3)c(F)cc2c1=O" , please?
Resp: 2

Req: Entry "O=C(O)c1cn(C2CCC2)c2cc(N3CCNCC3)c(F)cc2c1=O" : reported MIC = ?
Resp: 0.13

Req: Name the recorded MIC for "O=C(O)c1cn(C2CC2)c2cc(N3CCNCC3)c(F)cc2c1=O" .
Resp: 0.03

Req: Consider the molecule "C=C(C)n1cc(C(=O)O)c(=O)c2cc(F)c(N3CCNCC3)nc21" and give its measured MIC.
Resp: 0.13

Req: // MIC lookup, key: CC1(C)CC1n1cc(C(=O)O)c(=O)c2cc(F)c(N3CCNCC3)cc21 (stereo not given)
Resp: 2

====

So I've got a bunch of compounds here, and I need their MIC values.
Tested on: Escherichia coli
Experiment: In vitro antibacterial activity against Escherichia coli (A 15119)
Type: functional
Conditions: Escherichia coli; read-out: MIC

Req: Would you mind telling me what MIC value was observed for "CC(C)(C)n1cc(C(=O)O)c(=O)c2cc(F)c(N3CCNCC3)c(F)c21" ?
Resp: 0.06 µg/mL

Req: Fill in: MIC of "O=C(O)c1cn(CC2CC2)c2cc(N3CCNCC3)c(F)cc2c1=O" is ___
Resp: 0.5 µg/mL

Req: Look at this compound and give its reported MIC. "CC1(n2cc(C(=O)O)c(=O)c3cc(F)c(N4CCNCC4)cc32)CCC1"
Resp: 0.25 µg/mL

Req: Data request, read-out MIC, for "CC(C)(C)n1cc(C(=O)O)c(=O)c2cc(F)c(N3CCNCC3)nc21"
Resp: 0.015 µg/mL

Req: Endpoint output: MIC of "CC(C)(C)n1cc(C(=O)O)c(=O)c2cc(F)c(N3CCNCC3)cc21" . Value?
Resp: 0.06 µg/mL

Req: // MIC lookup, key: "O=C(O)c1cn(C2(c3ccccc3)CC2)c2cc(N3CCNCC3)c(F)cc2c1=O"
Resp: 0.13 µg/mL

Req: What value of measured MIC is listed for "O=C(O)c1cn(C2CC2)c2nc(N3CCNCC3)c(F)cc2c1=O" ?
Resp: 0.06 µg/mL

Req: Please report the recorded MIC for "O=C(O)c1cn(Cc2ccccc2)c2cc(N3CCNCC3)c(F)cc2c1=O" .
Resp: 0.25 µg/mL

Req: What MIC value was documented for this compound, "CCC(C)(C)n1cc(C(=O)O)c(=O)c2cc(F)c(N3CCNCC3)cc21" ?
Resp: 0.5 µg/mL

Req: Could you share which MIC value was measured for "O=C(O)c1cn(C2CC2)c2c(F)c(N3CCNCC3)c(F)cc2c1=O" ?
Resp: 0.03 µg/mL
